Origin of measurements: patent US20260242478A1

Reported Phage binding ELISA, Anti-PSMA Fab signal values follow for various binders
# testedTarget: T1, Anti-PSMA Fab (SEQ ID NOs: 19, 20)
# T1 construct: In the phage ELISA the Fab was biotinylated and captured on neutravidin coated plates; also called 006 PSMA Fab
# assayProtocol: phage ELISA; biotinylated PSMA Fab on neutravidin plate, clonal phage supernatant, anti-M13 HRP detection;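 also: wells preincubated with PSMA antigen in blocking buffer or with blocking buffer only before clonal phage were added for a short incubation, then bound phage detected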
Where no end group is shown, it is not given here.
Returns: the value as a bare number; no unit string appended.

Worked set:
binder: PTKLCIPEWMCYVR (cysteine pairing not given here; also: displayed on phage as pIII fusion, pIII and linker sequences not given here, Clone of the Peptide-180 library) [Phage-1850]
recordedMeasurement: 2.17

binder: MGNWCIPTWMCTGF (cysteine pairing not given here; also: displayed on phage as pIII fusion, pIII and linker sequences not given here, Clone of the Peptide-180 library) [Phage-1856]
recordedMeasurement: 2.16

Measured Phage binding ELISA, Anti-PSMA Fab signal, VMKWCIPSWMCSQD (cysteine pairing not given here; also: displayed on phage as pIII fusion, pIII and linker sequences not given here, Clone of the Peptide-180 library) [Phage-1857] : 2.16

Measured Phage binding ELISA, Anti-PSMA Fab signal, MEKWCTPSWMCVGF (cysteine pairing not given here; also: displayed on phage as pIII fusion, pIII and linker sequences not given here, Clone of the Peptide-180 library) [Phage-1855] : 2.17
